Provenance of the data: patent US8859620B2

Target: TEM-1 (class A β-lactamase) (Escherichia coli)
Assay: β-Lactamase assay (nitrocefin colour change), TEM-1
// values below are reported IC50
Just so you know, I need the unit written after the number.

Here is how some compounds turned out for IC50.
* CCCCCCCCOc1ccc(NC(=O)c2c(Cl)c(Cl)c(Cl)c(Cl)c2C(=O)O)cn1 | 4.9 µM
* O=C(O)c1c(Cl)c(Cl)c(Cl)c(Cl)c1C(=O)Nc1ccc(OCc2ccccc2)c(Cl)c1 | 32.3 µM
* CCCCCCCCOc1ccc(NC(=O)c2c(F)c(F)c(F)c(F)c2C(=O)O)cc1Cl | 5.1 µM

Let us examine a further case.
The reported IC50 value, TEM-1 (class A β-lactamase) (Escherichia coli), for O=C(O)c1c(Br)c(Br)c(Br)c(Br)c1C(=O)Nc1ccc(Oc2cc(C(F)(F)F)cc(C(F)(F)F)c2)cc1 reads 4.5 µM

* * *

Target: TEM-1 (class A β-lactamase) (Escherichia coli)
Assay: β-Lactamase assay (nitrocefin colour change), TEM-1
Measured parameter: log10 of IC50 (log10 of the value in µM)
All values: base-10 log of IC50 in µM.

* CCCCCCCCOc1ccc(NC(=O)c2ccccc2C(=O)O)cc1Cl | -0.15
* CCCCCCCCCCCCCCCCOc1ccc(NC(=O)c2c(Cl)c(Cl)c(Cl)c(Cl)c2C(=O)O)cc1 | -0.22
* O=C(O)c1c(Cl)c(Cl)c(Cl)c(Cl)c1C(=O)Nc1ccc(Oc2cc(C(F)(F)F)cc(C(F)(F)F)c2)cc1 | 1.43

The reported log10 of IC50 value, TEM-1 (class A β-lactamase) (Escherichia coli), for CC(Oc1ccc(NC(=O)c2c(Br)c(Br)c(Br)c(Br)c2C(=O)O)cc1Cl)c1ccccc1 (stereo not shown) reads 0.72

The reported log10 of IC50 value, TEM-1 (class A β-lactamase) (Escherichia coli), for O=C(O)c1c(Br)c(Br)c(Br)c(Br)c1C(=O)Nc1ccc(OCc2cccc(C(F)(F)F)c2)c(Cl)c1 reads 0.28

The reported log10 of IC50 value, TEM-1 (class A β-lactamase) (Escherichia coli), for O=C(O)c1c(Br)c(Br)c(Br)c(Br)c1C(=O)Nc1ccc(OCc2cccc(OC(F)(F)F)c2)c(Cl)c1 reads 0.20

The reported log10 of IC50 value, TEM-1 (class A β-lactamase) (Escherichia coli), for Cc1ccccc1COc1ccc(NC(=O)c2c(Br)c(Br)c(Br)c(Br)c2C(=O)O)cc1Cl reads 0.87

* * *

Molecular target: TEM-1 (class A β-lactamase) (Escherichia coli, UniProt P62593)
Sequence (P62593 24-286 limits assumed): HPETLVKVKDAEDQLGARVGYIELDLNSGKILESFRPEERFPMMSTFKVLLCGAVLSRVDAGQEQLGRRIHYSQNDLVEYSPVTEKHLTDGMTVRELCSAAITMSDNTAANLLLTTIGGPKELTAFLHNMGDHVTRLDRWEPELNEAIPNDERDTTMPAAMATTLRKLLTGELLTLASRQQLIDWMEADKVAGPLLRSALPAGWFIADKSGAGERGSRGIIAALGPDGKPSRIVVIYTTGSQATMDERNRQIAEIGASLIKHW
Assay: β-Lactamase assay (nitrocefin colour change), TEM-1
Format: biochemical
Settings: Table 10; class symbols x/xx/xxx, key not given
Measured parameter: TEM-1

Here is how some compounds turned out for TEM-1.
- O=C(O)c1c(Cl)c(Cl)c(Cl)c(Cl)c1C(=O)Nc1ccc(OCc2cccc(C(F)(F)F)c2)c(Cl)c1: xxx
- O=C(O)c1c(Br)c(Br)c(Br)c(Br)c1C(=O)Nc1ccc(Cl)c(C(F)(F)F)c1: xx
- O=C(O)c1c(Br)c(Br)c(Br)c(Br)c1C(=O)Nc1ccc(CO)cc1: xxx
- Cc1ccccc1COc1ccc(NC(=O)c2c(Cl)c(Cl)c(Cl)c(Cl)c2C(=O)O)cc1Cl: xx
- CCCCCCCCCCCCCCCCOc1ccc(NC(=O)c2c(Br)c(Br)c(Br)c(Br)c2C(=O)O)cc1: xxx

For this compound ( CCCCCCCCOc1ccc(NC(=O)c2c(F)c(F)c(F)c(F)c2C(=O)O)cc1Cl ), measured TEM-1 is xx

For this compound ( O=C(O)c1c(Br)c(Br)c(Br)c(Br)c1C(=O)Nc1ccc(Oc2cc(C(F)(F)F)cc(C(F)(F)F)c2)cc1 ), measured TEM-1 is xxx

For this compound ( CCCCCCCCOc1ccc(NC(=O)c2c(Cl)c(Cl)c(Cl)c(Cl)c2C(=O)O)cc1 ), measured TEM-1 is xxx

For this compound ( O=C(O)c1c(Br)c(Br)c(Br)c(Br)c1C(=O)Nc1ccc(OCc2cccc(C(F)(F)F)c2)c(Cl)c1 ), measured TEM-1 is xxx

* * *

Molecular target: TEM-1 (class A β-lactamase) (Escherichia coli, UniProt P62593)
Experiment: β-Lactamase assay (nitrocefin colour change), TEM-1
Assay type: biochemical
Conditions: Table 10; class symbols x/xx/xxx, key not given
Measured parameter: TEM-1

Here is how some compounds turned out for TEM-1.
* CCCCCCCCOc1ccc(NC(=O)c2c(Br)c(Br)c(Br)c(Br)c2C(=O)O)c[n+]1[O-] | xx
* O=C1c2c(Br)c(Br)c(Br)c(Br)c2C(=O)N1c1ccc(OCc2ccccc2)c(Cl)c1 | xxx
* CCCCCCCCOc1ccc(NC(=O)c2c(F)c(F)c(F)c(F)c2C(=O)O)cc1 | xxx
* Cc1ccccc1COc1ccc(NC(=O)c2c(Br)c(Br)c(Br)c(Br)c2C(=O)O)cc1Cl | xxx
* O=C(O)c1c(Br)c(Br)c(Br)c(Br)c1C(=O)Nc1ccc(OCc2cccc(OC(F)(F)F)c2)c(Cl)c1 | xxx

For this compound ( O=C1C2=C(SCCS2)C(=O)N1C(CO)[C@H](O)c1ccccc1 (stereo partly shown) ), measured TEM-1 is xxx

For this compound ( O=C(Nc1ccc(Cl)c(C(F)(F)F)c1)c1cccc([N+](=O)[O-])c1C(=O)O ), measured TEM-1 is xx

For this compound ( CCCCCCCCOc1ccc(NC(=O)c2c(Br)c(Br)c(Br)c(Br)c2C(=O)O)cn1 ), measured TEM-1 is xxx

For this compound ( O=C1C2=C(SCCS2)C(=O)N1[C@@H](CO)[C@@H](O)c1ccc([N+](=O)[O-])cc1 ), measured TEM-1 is xx

For this compound ( CCCCCCCCOc1ccc(NC(=O)c2ccccc2C(=O)O)cc1 ), measured TEM-1 is xxx

For this compound ( N#Cc1cccc(NC(=O)c2c(Br)c(Br)c(Br)c(Br)c2C(=O)[O-])c1.[Na+] ), measured TEM-1 is xx

For this compound ( CCCCCCCCOc1ccc(NC(=O)c2c(Cl)c(Cl)c(Cl)c(Cl)c2C(=O)O)cn1 ), measured TEM-1 is xxx

For this compound ( O=C(O)c1c(Cl)c(Cl)c(Cl)c(Cl)c1C(=O)Nc1ccc(Oc2cc(C(F)(F)F)cc(C(F)(F)F)c2)cc1 ), measured TEM-1 is xxx

For this compound ( O=C(O)c1c(Cl)c(Cl)c(Cl)c(Cl)c1C(=O)Nc1ccc(OCc2ccccc2)c(Cl)c1 ), measured TEM-1 is xxx

For this compound ( O=C(O)c1c(Br)c(Br)c(Br)c(Br)c1C(=O)Nc1cccc(C(F)(F)F)c1 ), measured TEM-1 is xx

For this compound ( CCCCCCCCOc1ccc(NC(=O)c2ccccc2C(=O)O)cc1Cl ), measured TEM-1 is xxx

* * *

Biological target: TEM-1 (class A β-lactamase) (Escherichia coli, UniProt P62593)
Assay: β-Lactamase assay (nitrocefin colour change), TEM-1
Rule: measured IC50 below 4000 nM gets fulfilled; anything equal to or greater than 4000 nM gets not fulfilled.

Field: example entries. Status: answers known.
* CCCCCCCCOc1ccc(NC(=O)c2c(Cl)c(Cl)c(Cl)c(Cl)c2C(=O)O)cc1 | fulfilled
* O=C(O)c1c(Cl)c(Cl)c(Cl)c(Cl)c1C(=O)Nc1ccc(OCc2cccc(C(F)(F)F)c2)c(Cl)c1 | not fulfilled
* CCCCCCCCOc1ccc(NC(=O)c2c(Br)c(Br)c(Br)c(Br)c2C(=O)O)cc1 | fulfilled
* CCCCCCCCOc1ccc(NC(=O)c2c(Br)c(Br)c(Br)c(Br)c2C(=O)O)cn1 | fulfilled
* CCCCCCCCCCCCCCCCOc1ccc(NC(=O)c2c(F)c(F)c(F)c(F)c2C(=O)O)cc1 | not fulfilled
* CCCCCCCCCCCCCCCCOc1ccc(NC(=O)c2c(Br)c(Br)c(Br)c(Br)c2C(=O)O)cc1 | fulfilled

Now look at this one.
Prompt: Lab log: compare recorded IC50 with 4000 nM; is it strictly lower for O=C(O)c1c(Cl)c(Cl)c(Cl)c(Cl)c1C(=O)Nc1ccc(OCc2cccc(OC(F)(F)F)c2)c(Cl)c1 ?
Completion: fulfilled

* * *

Biological target: OXA-10 (class D β-lactamase) (Pseudomonas aeruginosa, UniProt P14489)
Sequence (P14489 20-266, species assumed): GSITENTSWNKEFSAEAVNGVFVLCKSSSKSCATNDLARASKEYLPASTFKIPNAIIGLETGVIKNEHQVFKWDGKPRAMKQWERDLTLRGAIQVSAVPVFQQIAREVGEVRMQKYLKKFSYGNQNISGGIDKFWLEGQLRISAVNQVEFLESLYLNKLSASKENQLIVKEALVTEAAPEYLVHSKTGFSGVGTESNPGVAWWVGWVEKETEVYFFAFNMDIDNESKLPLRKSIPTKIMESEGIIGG
Assay: β-Lactamase assay (nitrocefin colour change), OXA-10
Details: nitrocefin 100 μM, 10 nM enzyme, 5 min pre-incubation; read-out: IC50s OXA-10
Measured parameter: IC50 (µM)
Record the value in µM, omitting the unit from your answer.

Here is how some molecules turned out for IC50.
- CC(Oc1ccc(NC(=O)c2c(Br)c(Br)c(Br)c(Br)c2C(=O)O)cc1Cl)c1ccccc1 (stereo not shown): 26.6
- Cc1ccccc1COc1ccc(NC(=O)c2c(Br)c(Br)c(Br)c(Br)c2C(=O)O)cc1Cl: 31.6

For this molecule ( CCCCCCCCOc1ccc(NC(=O)c2ccccc2C(=O)O)cc1Cl ), measured IC50 is 30.7

For this molecule ( CCCCCCCCCCCCCCCCOc1ccc(NC(=O)c2c(F)c(F)c(F)c(F)c2C(=O)O)cc1 ), measured IC50 is 0.7
